Data provenance: paper doi:10.1101/2020.10.21.349050

Biological target: T1, GST-Swi6 (Schizosaccharomyces pombe, UniProt P40381 1-328)
T1 sequence: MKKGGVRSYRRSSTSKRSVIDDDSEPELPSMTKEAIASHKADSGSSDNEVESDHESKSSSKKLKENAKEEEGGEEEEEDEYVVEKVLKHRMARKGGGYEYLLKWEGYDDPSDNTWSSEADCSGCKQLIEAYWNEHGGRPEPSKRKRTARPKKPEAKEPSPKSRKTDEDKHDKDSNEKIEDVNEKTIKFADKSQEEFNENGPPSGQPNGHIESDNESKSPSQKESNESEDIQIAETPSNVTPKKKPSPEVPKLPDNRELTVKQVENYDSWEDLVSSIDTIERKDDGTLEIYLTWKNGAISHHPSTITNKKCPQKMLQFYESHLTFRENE
Test: EMSA
pKd: −log10 of the molar value.
Measured Quantity: pKd

binder="D-For RNA-DNA hybrid (DNA:RNA) RNA: UGGAUUAAGGAGAAGCGGUA DNA: TACCGCTTCTCCTTAATCCA" measured_quantity=pKd measured_value=7.05
